B1: tRNA (parent)
chain: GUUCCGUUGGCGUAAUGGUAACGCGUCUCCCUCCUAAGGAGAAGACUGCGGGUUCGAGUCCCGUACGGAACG

- Variants of: B1
- Assay Protocol: yeast fitness relative to wild type (ratio to wild type); higher = fitter; tRNA-Arg(CCU), competitive growth, 37 C, YPD
This sample holds only a part of the variants without activity.
Measured yeast fitness values are reported for all entries that follow.
Lab note: record the figure alone, no unit after it.

Example variants with recorded yeast fitness:
{"columns": ["Sequence Change", "yeast fitness"],
 "data": [
  ["U3C C4A A65C", 0.62],
  ["C5G G6C G38C G58U", 0.551],
  ["C4U C66A G68C", 0.546]
]}

Let us move to another entry and its yeast fitness.
Fill in yeast fitness for record U3C U19A C22U
0.558
